System: CAPAN-2 (Pancreatic Carcinoma);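 further: after 72 h of two-drug dosing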
Experiment: Bliss excess, mean over the matrix (fraction); higher = more synergy
observation-type: Bliss excess
Form field (numeric): enter value without unit.

See these solved cases before continuing.
{"columns": ["molecule", "test-target", "Bliss excess"],
 "data": [
  ["CN(C)CCCOc1ccc(-c2ccc3ncc4c(c3c2)n(C2CCOCC2)c(=O)n4C)cn1 [AZD0156] + CCN(CCO)CCCOc1ccc2c(Nc3cc(CC(=O)Nc4cccc(F)c4)[nH]n3)ncnc2c1 [AZD2811] (first compound max 1 µM, 7x7, partner max 1 µM)", "CAPAN-2 (Pancreatic Carcinoma)", -0.0637],
  ["Cc1cc2ncnn2cc1Nc1ncc2c(n1)n(C1CCOCC1)c(=O)n2C [AZD7648] + CCN(CCO)CCCOc1ccc2c(Nc3cc(CC(=O)Nc4cccc(F)c4)[nH]n3)ncnc2c1 [AZD2811] (first compound max 10 µM, 7x7, partner max 1 µM)", "CAPAN-2 (Pancreatic Carcinoma)", -0.0525],
  ["NC1(C(=O)N[C@@H](CCO)c2ccc(Cl)cc2)CCN(c2ncnc3[nH]ccc23)CC1 [Capivasertib] + Cn1cnc2c(F)c(Nc3ccc(Br)cc3Cl)c(C(=O)NOCCO)cc21 [Selumetinib] (first compound max 10 µM, 7x7, partner max 10 µM)", "CAPAN-2 (Pancreatic Carcinoma)", 0.0332],
  ["CCN(CCO)CCCOc1ccc2c(Nc3cc(CC(=O)Nc4cccc(F)c4)[nH]n3)ncnc2c1 [AZD2811] + C=CCn1c(=O)c2cnc(Nc3ccc(N4CCN(C)CC4)cc3)nc2n1-c1cccc(C(C)(C)O)n1 [AZD1775] (first compound max 1 µM, partner max 1 µM)", "CAPAN-2 (Pancreatic Carcinoma)", -0.0462],
  ["Cc1c2c(nn1C)CSCc1cc(n(C)n1)CSc1cc(c3ccccc3c1)OCCCc1c(C(=O)O)n(C)c3c-2c(Cl)ccc13 [AZD5991] + C=CCn1c(=O)c2cnc(Nc3ccc(N4CCN(C)CC4)cc3)nc2n1-c1cccc(C(C)(C)O)n1 [AZD1775] (first compound max 1 µM, partner max 1 µM)", "CAPAN-2 (Pancreatic Carcinoma)", 0.0292]
]}

Data request, read-out Bliss excess, for CN(C)CCCOc1ccc(-c2ccc3ncc4c(c3c2)n(C2CCOCC2)c(=O)n4C)cn1 [AZD0156] + C=CCn1c(=O)c2cnc(Nc3ccc(N4CCN(C)CC4)cc3)nc2n1-c1cccc(C(C)(C)O)n1 [AZD1775] (first compound max 1 µM, partner max 1 µM)
-0.0709

Which value of Bliss excess has been reported for Cc1c2c(nn1C)CSCc1cc(n(C)n1)CSc1cc(c3ccccc3c1)OCCCc1c(C(=O)O)n(C)c3c-2c(Cl)ccc13 [AZD5991] + CN(C)CCCOc1ccc(-c2ccc3ncc4c(c3c2)n(C2CCOCC2)c(=O)n4C)cn1 [AZD0156] (first compound max 1 µM, 7x7, partner max 1 µM) in the records?
0.0062
